# experimental_target: Perilipin-5 (Homo sapiens) + 1-acylglycerol-3-phosphate O-acyltransferase ABHD5 (Homo sapiens) (UniProt Q00G26+Q8WTS1)
# Sequence (Q00G26 whole entry, looked up, the tested form may be a part): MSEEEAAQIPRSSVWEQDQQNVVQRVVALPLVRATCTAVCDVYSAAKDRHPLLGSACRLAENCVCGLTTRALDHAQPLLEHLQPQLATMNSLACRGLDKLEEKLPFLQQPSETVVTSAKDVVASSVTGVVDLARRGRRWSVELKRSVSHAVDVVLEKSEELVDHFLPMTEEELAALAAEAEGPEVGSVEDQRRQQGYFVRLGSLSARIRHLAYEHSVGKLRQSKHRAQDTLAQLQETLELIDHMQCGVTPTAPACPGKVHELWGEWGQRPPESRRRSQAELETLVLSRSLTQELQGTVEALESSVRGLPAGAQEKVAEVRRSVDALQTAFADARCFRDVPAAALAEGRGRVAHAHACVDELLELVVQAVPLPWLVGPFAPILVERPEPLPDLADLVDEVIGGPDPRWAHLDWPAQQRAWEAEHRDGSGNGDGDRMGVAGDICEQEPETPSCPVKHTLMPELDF
# Sequence (Q8WTS1 whole entry, looked up, the tested form may be a part): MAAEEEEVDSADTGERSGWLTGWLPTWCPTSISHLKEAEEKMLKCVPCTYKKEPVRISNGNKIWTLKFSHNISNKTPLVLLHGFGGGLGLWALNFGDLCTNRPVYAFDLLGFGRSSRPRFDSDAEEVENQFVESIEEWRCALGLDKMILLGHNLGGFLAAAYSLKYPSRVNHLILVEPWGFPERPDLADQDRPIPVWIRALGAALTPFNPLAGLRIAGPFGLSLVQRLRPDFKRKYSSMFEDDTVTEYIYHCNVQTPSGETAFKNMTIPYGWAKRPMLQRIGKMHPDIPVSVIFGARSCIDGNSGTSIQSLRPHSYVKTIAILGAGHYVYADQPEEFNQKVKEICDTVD
# test_summary: blockers of ABHD5 binding to perilipin-5 – cell lysate, luminescence, proteins expressed in HEK293T, dose response (AID 651733);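 further: split Gaussia princeps luciferase complementation between ABHD5 and MLDP fusion proteins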
# condition: ABHD5-PLIN5 interaction
Calls of active or inactive are those of the source. How the calls were made is not given here.
Can you answer with just one of these options? yes (active), no (inactive)

compound: C=C1C(=O)O[C@H]2C[C@H]1[C@@H](OC(C)=O)C/C(C)=C/CC/C(C)=C\CC[C@]2(C)O
answer_label: yes
--
compound: COc1ccc(/C=C\C(=O)CC(O)(c2ccccc2)C(F)(F)F)cc1 (stereo not drawn)
answer_label: yes
--
compound: CCCCCNC(=O)C(C1CC1)n1c(=O)c(-c2ccco2)nc2ccccc21 (stereo not drawn)
answer_label: yes
--
compound: CN(C)CCOc1ccc(/C(=C(/CCCl)c2ccccc2)c2ccccc2)cc1
answer_label: yes
--
compound: Cc1ccc(CC2(OCCN(C)C)CCC(C(C)(C)C)CC2)cc1 (stereo not drawn)
answer_label: yes

Could you please tell me the result logged for N#Cc1ccc(C(C(=O)NC2CCCCC2)n2c(=O)c(-c3ccco3)nc3ccccc32)cc1 (stereo not drawn) in this assay?
yes

Could you please tell me the result logged for C#CCOCCOCCOCCNc1nc(N2CCN(C(=O)CCCCCCCCCCNC(=O)[C@@H](CCSC)n3cc(CCO)nn3)CC2)nc(N2CCN(C(=O)CCCCCCCCCCNC(=O)[C@@H]([C@H](C)O)n3cc(C)nn3)CC2)n1 in this assay?
no

Could you please tell me the result logged for CN(C)c1ccc(Cc2cc3c(O)ccc(O)c3cc(Cc3ccc(N(C)C)cc3)c2=O)cc1 in this assay?
yes

###

# experimental_target: Perilipin-5 (Homo sapiens) + 1-acylglycerol-3-phosphate O-acyltransferase ABHD5 (Homo sapiens) (UniProt Q00G26+Q8WTS1)
# test_summary: blockers of ABHD5 binding to perilipin-5 – cell lysate, luminescence, proteins expressed in HEK293T, dose response (AID 651733);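 further: split Gaussia princeps luciferase complementation between ABHD5 and MLDP fusion proteins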
# condition: ABHD5-PLIN5 interaction
Calls of active or inactive are those of the source. The rule behind the calls is not given here.
Can you answer with just one of these options? active, inactive

compound: Cc1cccc(C)c1NC(=O)C(c1ccc(C(F)(F)F)cc1)n1c(=O)c(-c2ccco2)nc2ccccc21 (stereo not given)
answer_label: active

Could you please tell me the result logged for CC(C)(C)NC(=O)C(c1ccc(-c2ccccc2)cc1)n1c(=O)c(-c2ccco2)nc2ccccc21 (stereo not given) in this assay?
active

Could you please tell me the result logged for CN1C(=O)/C(=C/C=C/c2ccco2)C(=O)NC1=S in this assay?
inactive

Could you please tell me the result logged for CCC(C(=O)OCCN(CC)CC)c1ccccc1 (stereo not given) in this assay?
active

Could you please tell me the result logged for O=C(NC1CCCCC1)C(c1ccnc2ccccc12)n1c(=O)c(-c2ccco2)nc2ccccc21 (stereo not given) in this assay?
active

###

# experimental_target: Perilipin-5 (Homo sapiens) + 1-acylglycerol-3-phosphate O-acyltransferase ABHD5 (Homo sapiens) (UniProt Q00G26+Q8WTS1)
# test_summary: blockers of ABHD5 binding to perilipin-5 – cell lysate, luminescence, proteins expressed in HEK293T, dose response (AID 651733);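 further: split Gaussia princeps luciferase complementation between ABHD5 and MLDP fusion proteins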
# condition: ABHD5-PLIN5 interaction
readout_type: IC50

Examples from the recorded data:
compound: CN1[C@@H]2CC[C@H]1CC(OC1c3ccccc3CCc3ccccc31)C2 (some centres undefined)
observed_value: 2.38 µM

compound: C#CCN(C[C@@H]1[C@@H](OC(=O)NCc2ccccc2F)[C@@H](OC(=O)NCc2ccccc2F)Cn2c(=O)ccc(=O)n21)S(=O)(=O)c1ccc(C)cc1
observed_value: 6.28 µM

compound: c1ccc(CCC2=NCCn3cccc32)cc1
observed_value: 8.18 µM

# input for lookup
Output measured IC50 for this item: C#CCN(C[C@@H]1[C@@H](OC(=O)NCC2CCCCC2)[C@@H](OC(=O)NCC2CCCCC2)Cn2c(=O)ccc(=O)n21)S(=O)(=O)c1ccc(C)cc1
4.5 µM
